system: LOX IMVI melanoma; test: NCI-60 one-dose screen, 48 h (100 = growth as untreated, 0 = no growth, -100 = all killed); conditions: 10 µM unless noted
This is part of a sample that, as a whole, favours compounds with a hit. Of some 83,000 tested, about 20% had one in any assay.
Here the recorded growth is given for each entry.
A number alone suffices; assume %.

Consider `O=C(Nc1cccc(-c2cccc(F)c2)c1)C1CCN(Cc2cccc3cccnc23)CC1` . Its measured growth is 3.29

Consider O=CN1N=C(c2ccc(F)cc2)CC1c1cccc(Nc2ccnc3cc(C(F)(F)F)ccc23)c1 (centres undefined) . Its measured growth is 40.2

Consider `COc1cc(-c2nn(-c3ccc(Br)cc3)cc2CO)ccc1O` . Its measured growth is 86.5

Consider CCSc1ccc(C2C(Br)C(=O)N2c2cc(OC)c(OC)c(OC)c2)cc1 (centres undefined) . Its measured growth is 25.7

Consider `O=C1[C@@H](OS(=O)(=O)CC(F)(F)F)[C@H](c2ccc(F)cn2)N1c1cc2c3ccccc3ccc2c2ccccc12` . Its measured growth is 70.3

Consider `O=C(N/N=C/C[C@@H]1[C@@H](/C=C/[C@@H](O)COc2cccc(Cl)c2)[C@H](O)C[C@@H]1O)c1ccncc1` . Its measured growth is 94.3

* * *

tested on: BT-549 breast; experiment: NCI-60 one-dose screen, 48 h (100 = growth as untreated, 0 = no growth, -100 = all killed); conditions: 10 µM unless noted
The panel holds about 83,000 compounds, 20% with a hit somewhere; the sample as a whole holds those more often.
Here the recorded growth is given for each entry.
A number alone suffices; assume %.

Here's what some known entries look like.
CCOC(=O)c1c(C)nc2c(c1N)/C(=C/c1ccccn1)C(=O)N2Cc1ccccc1; 15.9
COc1ccc2nc3nc4ccc[nH]c4cc3c2c1; 84.1
Cc1nc(C)c(C)nc1C; 110
CC(C)(C)c1ccc2oc(=O)n(SC(Cl)(Cl)Cl)c2c1; 98.2
C#C[C@@]1(O)[C@@H](CO)O[C@@H](n2cc(F)c3c(N)ncnc32)[C@@H]1O; -23.9
COc1cc(NC(=O)c2cc(O)c(C/C=C(\C)CCC=C(C)C)c(O)c2)cc2c1O[C@]1(C)CC[C@@H](O)C(C)(C)[C@H]1C2; 0.27
Nc1c(C(=O)Nc2cccc3ccccc23)sc2nc3c(cc12)CCCCC3; 12.6
OCCNc1nc(NCCO)nc(Nc2ccc(C3=NN(c4ccc(Cl)cc4)C(c4ccc(Cl)cc4)C3)cc2)n1 (centres undefined); 77.1

Note: attention shifts to another entry.
Per the reported BT-549 breast data, `COc1cc2nc3c(=O)n(-c4ccc(C#N)cc4)cnn3c(=O)c2cc1OC` has growth of 102

* * *

tested on: 786-0 renal; assay: NCI-60 one-dose screen, 48 h (100 = growth as untreated, 0 = no growth, -100 = all killed); conditions: 10 µM unless noted
About 83,000 compounds went through this panel and 20% of them were active in at least one assay; those are over-represented in the sample as a whole.
Experimental readout: growth (%)
A number alone suffices; assume %.

Here's what some known entries look like.
NC(=N\N=C\c1ccccc1O)/C(N)=N/N=C/c1ccccc1O; 85.2
Nc1cc(N)nc(SCC(=O)O)n1; 99.1
[2H]c1cc2c(c([2H])c1F)/C(=C/c1[nH]c(C)c(C(=O)NCCN(CC)CC)c1C)C(=O)N2; 32.5

Consider `C/C(=N/Nc1nc2ccccc2n1C)c1ccccn1` . Its measured growth is 9.02
